test system: NCI-H211 tumor spheroids, viability percent test/control; test: Anticancer human tumor NCI-H211 cell line growth inhibition; settings: second compound 1 µM; first compound 0.316 µM; active compounds read low; spheroids with HUVEC and MSC;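 also: spheroids exposed to agents for seven days before readout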
Measured viability, T/C values are reported for all entries that follow.
Field format: number, assumed %, no unit text.

See these solved cases before continuing.
# COMPOUND, MEASURED
measured = [
    ("Cc1cc(C)c(CNC(=O)c2cc(-c3ccc(CN4CCOCC4)cc3)cc3c2cnn3C2CCCC2)c(=O)[nH]1 + Cn1nnc2c(C(N)=O)ncn2c1=O", 70),
    ("COc1ccc([C@@H](O)c2cc(-c3ncnc4cc(N5CCOCC5)ccc34)c(F)cc2Cl)nn1 + Cn1nnc2c(C(N)=O)ncn2c1=O", 90.3),
    ("[2H]c1nc(C)nc([2H])c1-c1cc(NC[C@@H](C)c2cccc3c(C(=O)NC)ccnc23)ncn1 + Cn1nnc2c(C(N)=O)ncn2c1=O", 93.5),
    ("COc1cc(C)[nH]c(=O)c1CN1CCc2c(Cl)cc(C(OC)C3COC3)c(Cl)c2C1=O (stereo unspecified) + Cn1nnc2c(C(N)=O)ncn2c1=O", 90.6),
    ("CC(C)n1c(=O)n(C)c2cnc3cc(F)c(-c4ccc(OCCCN5CCCCC5)nc4)cc3c21 + Cn1nnc2c(C(N)=O)ncn2c1=O", 54),
]

Next compound, viability, T/C to be filled in.
Given the entry CC1COCCN1c1cc(-c2ccnn2C)c2ccnc(-c3ccn[nH]3)c2n1 (stereo unspecified) + Cn1nnc2c(C(N)=O)ncn2c1=O , report its measured viability, T/C.
0.83
